Biological target: recombinant human latent myostatin (human, UniProt O14793 24-375, biotinylated (in the Octet pH assay only))
Assay: cell-based or functional assay
endpoint-label: IC50 (nM) Latent + mTLL2

binder="Ab123 (antibody, human IgG4 S228P, kappa, V domains shown) VH: EVQLVESGGGLVQPGGSLRLSCAASGFTFSKYDMSWVRQAPGKGLELVASISSSGGTRYYPDSVKGRFTISRDNAKNSLYLQMNSLRAEDTAVYYCAKDLWVASPGYGMDVWGQGTTVTVSS VL: DIVMTQSPLSLPVTPGEPASISCRSSQSLLHSSGHNYLHWYLQKPGQSPQLLIYLGSIRAPGVPDRFSGSGSGTDFTLKISRVEAEDVGVYYCMQALLNPPTFGGGTKVEIKR" endpoint_label="IC50 (nM) Latent + mTLL2" data_value=0.139
binder="Ab129 (antibody, human IgG4 S228P, kappa, V domains shown) VH: QVQLVQSGAEVKKPGASVKVSCKVSGFNYPRSAIHWVRQAPGKGLEWMGGINPSGEATIYAQKFQGRVTMTEDTSTDTAYMELSSLKSEDTAVYYCARDSSPQWLVTAGVYFYGMDVWGQGTTVTVSS VL: DIQMTQSPSSVSASVGDRVTITCRASQSISNWLAWYQQKPGKAPKLLIYHASTLQSGVPSRFSGSGSGTDFTLTISSLQPEDFANYYCQQYSSTPWTFGGGTKVEIKR" endpoint_label="IC50 (nM) Latent + mTLL2" data_value=3.89
binder="Ab125 (antibody, human IgG4 S228P, kappa, V domains shown) VH: EVQLVQSGAEVKKPGESLKISCKGSGNRISDYWMNWVRQVPGKGLEWMGNIYPGYSDATYNRKFKGQVTISADKSISTAYLQWSSLKASDTAIYYCARGRDGYNYFAAFDIWGQGTMVTVSS VL: EIVLTQSPATLSLSPGERATLSCRASQSVASSYLAWYQQKPGQAPRLLIYDTSSRAAGIPARFSGSGSGTDFTLTISSLEPEDFAVYYCHQYGSSLTTFGGGTKVEIKR" endpoint_label="IC50 (nM) Latent + mTLL2" data_value=0.202
